# System: HNSC
# experiment-summary: growth inhibition (% activity, log2 RLU normalised to DMSO / staurosporine); higher = more growth inhibition
# settings: 33 µM
attribute-measured: growth inhibition (%)
Answers are plain numbers, in %.

Check out these entries, answers already filled in.
compound	attribute-measured	units	measurement
CCOC(=O)c1ccc(N)cc1	growth inhibition	%	-1.55
CC(C)(C(=O)O)c1ccc(C(O)CCCN2CCC(C(O)(c3ccccc3)c3ccccc3)CC2)cc1 (stereo unspecified)	growth inhibition	%	3.07
CC(=O)OCC(=O)[C@@]1(O)CC[C@H]2[C@@H]3CCC4=CC(=O)C=C[C@]4(C)[C@@]3(Cl)[C@@H](Cl)C[C@@]21C	growth inhibition	%	8.39
Nc1nc2[nH]cnc2c(=S)[nH]1	growth inhibition	%	63.7
O=C(O)Cc1cc(I)c(Oc2ccc(O)c(I)c2)c(I)c1	growth inhibition	%	-1.43
C[C@@H](c1ncncc1F)[C@](O)(Cn1cncn1)c1ccc(F)cc1F	growth inhibition	%	1.22
OCCOCCN1CCN(C2=Nc3ccccc3Sc3ccccc32)CC1	growth inhibition	%	0.74
CCC1(c2ccccc2)C(=O)NCNC1=O	growth inhibition	%	3.35

List reported growth inhibition for each of these compounds:
1. CCCCc1ncc(/C=C(\Cc2cccs2)C(=O)O)n1Cc1ccc(C(=O)O)cc1
2. CCN1CCCC1CNC(=O)c1cc(S(N)(=O)=O)ccc1OC (stereo unspecified)
3. C=C1/C(=C\C=C2/CCC[C@]3(C)[C@@H]([C@H](C)/C=C/[C@H](C)C(C)C)CC[C@@H]23)C[C@@H](O)C[C@@H]1O

1. -1.62
2. 1.32
3. 3.33

###

Kindly supply the reported growth inhibition values for the records listed here.
# Tested on: HGGX6 (H3.3 G34R paediatric high-grade glioma line)
# experiment-summary: growth inhibition (% activity, log2 RLU normalised to DMSO / staurosporine); higher = more growth inhibition
# settings: 33 µM
Don't forget the unit after the value.

Check out these entries, answers already filled in.
molecule	target-system	measurement
COc1ccc(C2C(=O)c3ccccc3C2=O)cc1	HGGX6	1.25%
CN1[C@@H]2CC[C@H]1C[C@@H](OC(c1ccccc1)c1ccccc1)C2	HGGX6	5%
Nc1ccc(S(=O)(=O)Nc2ccccn2)cc1	HGGX6	0.609%
Cc1cnc(C(=O)NCCc2ccc(S(=O)(=O)NC(=O)NC3CCCCC3)cc2)cn1	HGGX6	1.61%
CN(C)CCC(c1ccc(Br)cc1)c1ccccn1 (stereo unspecified)	HGGX6	-1.76%
C[C@@H](NCCCc1cccc(C(F)(F)F)c1)c1cccc2ccccc12	HGGX6	18.9%
Nc1nc2[nH]cc(CCc3ccc(C(=O)N[C@@H](CCC(=O)O)C(=O)O)cc3)c2c(=O)[nH]1	HGGX6	-2.22%
C=CCc1cc(OC)c(O)c(C(=O)NCCO)c1	HGGX6	-0.129%

List reported growth inhibition for each of these molecules:
1. COC(=O)C1=C(C)NC(C)=C(C(=O)OCC(C)C)C1c1ccccc1[N+](=O)[O-] (stereo unspecified)
2. NC(=O)N1c2ccccc2C=Cc2ccccc21

["3.46%", "0.945%"]

List reported growth inhibition for each of these molecules:
1. C[C@H]1NC(=O)NC1=O
2. OCCOCCN1CCN(C(c2ccccc2)c2ccc(Cl)cc2)CC1 (stereo unspecified)
3. CCOC(CN1CCN(CC(C)C(=O)c2ccccc2)CC1)c1ccccc1 (stereo unspecified)

0.316%
3.73%
1.64%

List reported growth inhibition for each of these molecules:
1. Oc1ccc(OCc2ccccc2)cc1
2. O.O=[Si]=O.O=[Si]=O.O=[Si]=O.O=[Si]=O.[O]=[Mg].[O]=[Mg].[O]=[Mg]
3. CC[C@H]1OC(=O)[C@H](C)[C@@H](O[C@H]2C[C@@](C)(OC)[C@@H](O)[C@H](C)O2)[C@H](C)[C@@H](O[C@@H]2O[C@H](C)C[C@H](N(C)C)[C@H]2O)[C@](C)(O)C[C@@H](C)/C(=N\OCOCCOC)[C@H](C)[C@@H](O)[C@]1(C)O

1. 1.02%
2. 0.613%
3. 0.659%

List reported growth inhibition for each of these molecules:
1. CCCS(=O)(=O)Nc1ccc(F)c(C(=O)c2c[nH]c3ncc(-c4ccc(Cl)cc4)cc23)c1F
2. NS(=O)(=O)c1cc2c(cc1C(F)(F)F)NC(Cc1ccccc1)NS2(=O)=O (stereo unspecified)
3. CN(C)CC/C=C1/c2ccccc2Sc2ccc(Cl)cc21
4. Cc1cccc(CN2CCN(C(c3ccccc3)c3ccc(Cl)cc3)CC2)c1 (stereo unspecified)

1: 2.46%; 2: 1.26%; 3: 2.17%; 4: 7.41%

Identify measured growth inhibition corresponding to Cc1cccc(C)c1OCC(C)N (stereo unspecified)
-1.81%
